Tested on: TYKNU
Assay: fractional viability relative to vehicle; TYKNU is a high-grade serous ovarian cancer line; higher = less growth inhibition
Details: 2uM; 72 h; genotype: OPA1 knockout (sgOPA1 #2)
Structures can show the parent of a compound that is named as a salt. The full ranking holds about 2,000 compounds; the median of “fractional viability relative to vehicle” is about 0.92, and the lowest 2% start at about 0.11. Shown is part of a subset that was picked to be rich in the lowest values.
Please assign FALSE whenever fractional viability is at or above 0.9, and TRUE whenever it is below.

>>> classification("COc1cc(OC)c(C(=O)CCCN2CCCC2)c(OC)c1 [Buflomedil HCl]")
"TRUE"
>>> classification("COc1cc2c(Oc3ccc4[nH]c(C)cc4c3F)ncnc2cc1OCCCN1CCCC1")
"FALSE"
>>> classification("COc1cc2nc(N3CCN(C(=O)C4CCCO4)CC3)nc(N)c2cc1OC (stereo not given) [Terazosin HCl]")
"FALSE"
>>> classification("COC(=O)c1ccc2c(c1)[nH]c1ncnc(NCCCN3CCCCC3)c12")
"TRUE"
